Every entry's value here was drawn from the supplement of paper PMC10307832.

system: LC-2-ad; assay: relative viability (nuclei count vs DMSO), 5 days (fraction); higher = more cells survive; details: first compound 0.1 µM
Reported relative viability values for the following molecules.

• Cc1cn(-c2cc(NC(=O)c3ccc(C)c(Nc4nccc(-c5cccnc5)n4)c3)cc(C(F)(F)F)c2)cn1 [Nilotinib] + Cc1cc(Nc2cc(N3CCN(C)CC3)nc(Sc3ccc(NC(=O)C4CC4)cc3)n2)n[nH]1 [Tozasertib] (partner 0.1 µM) = 0.403
• Cc1cn(-c2cc(NC(=O)c3ccc(C)c(Nc4nccc(-c5cccnc5)n4)c3)cc(C(F)(F)F)c2)cn1 [Nilotinib] + Nc1ncn([C@H]2C[C@H](O)[C@@H](CO)O2)c(=O)n1 [Decitabine] (partner 2 µM) = 0.803
• Cc1cn(-c2cc(NC(=O)c3ccc(C)c(Nc4nccc(-c5cccnc5)n4)c3)cc(C(F)(F)F)c2)cn1 [Nilotinib] + O=C(c1cc(Cc2n[nH]c(=O)c3ccccc23)ccc1F)N1CCN(C(=O)C2CC2)CC1 [Olaparib] (partner 8 µM) = 0.594

Below: the item to evaluate.
Measured relative viability of Cc1cn(-c2cc(NC(=O)c3ccc(C)c(Nc4nccc(-c5cccnc5)n4)c3)cc(C(F)(F)F)c2)cn1 [Nilotinib] + CCNC(=O)c1noc(-c2cc(C(C)C)c(O)cc2O)c1-c1ccc(CN2CCOCC2)cc1 [Luminespib] (partner 0.01 µM) : 0.8

====

system: NCI-H647; test: relative viability (nuclei count vs DMSO), 5 days (fraction); higher = more cells survive; details: first compound 0.01 µM
metric: relative viability
Note: the reply should be a number with no unit written.

* Cc1cn(-c2cc(NC(=O)c3ccc(C)c(Nc4nccc(-c5cccnc5)n4)c3)cc(C(F)(F)F)c2)cn1 [Nilotinib] + CC(=O)c1c(C)c2cnc(Nc3ccc(N4CCNCC4)cn3)nc2n(C2CCCC2)c1=O [Palbociclib] (partner 0.5 µM) | 0.468

Measured relative viability of Cc1cn(-c2cc(NC(=O)c3ccc(C)c(Nc4nccc(-c5cccnc5)n4)c3)cc(C(F)(F)F)c2)cn1 [Nilotinib] + Cc1cc(Nc2cc(N3CCN(C)CC3)nc(Sc3ccc(NC(=O)C4CC4)cc3)n2)n[nH]1 [Tozasertib] (partner 0.1 µM) : 0.164

Measured relative viability of Cc1cn(-c2cc(NC(=O)c3ccc(C)c(Nc4nccc(-c5cccnc5)n4)c3)cc(C(F)(F)F)c2)cn1 [Nilotinib] + Cc1nc(Nc2ncc(C(=O)Nc3c(C)cccc3Cl)s2)cc(N2CCN(CCO)CC2)n1 [Dasatinib] (partner 0.075 µM) : 0.262

Measured relative viability of Cc1cn(-c2cc(NC(=O)c3ccc(C)c(Nc4nccc(-c5cccnc5)n4)c3)cc(C(F)(F)F)c2)cn1 [Nilotinib] + O=C(CCCCCCC(=O)Nc1ccccc1)NO [Vorinostat] (partner 1 µM) : 0.418

Measured relative viability of Cc1cn(-c2cc(NC(=O)c3ccc(C)c(Nc4nccc(-c5cccnc5)n4)c3)cc(C(F)(F)F)c2)cn1 [Nilotinib] + Nc1ncn([C@H]2C[C@H](O)[C@@H](CO)O2)c(=O)n1 [Decitabine] (partner 2 µM) : 0.573

====

test system: NCI-H838; assay: relative viability (nuclei count vs DMSO), 5 days (fraction); higher = more cells survive; settings: first compound 8 µM
// returns false unless relative viability is strictly below 0.4, in which case true

Please review the following examples before continuing.
- Nc1cccc2c1CN(C1CCC(=O)NC1=O)C2=O (stereo unspecified) [Lenalidomide] + O=C(c1cc(Cc2n[nH]c(=O)c3ccccc23)ccc1F)N1CCN(C(=O)C2CC2)CC1 [Olaparib] (partner 8 µM): false
- Nc1cccc2c1CN(C1CCC(=O)NC1=O)C2=O (stereo unspecified) [Lenalidomide] + NC(=O)Nc1cc(-c2cccc(F)c2)sc1C(=O)N[C@H]1CCCNC1 [AZD7762] (partner 0.2 µM): false
- Nc1cccc2c1CN(C1CCC(=O)NC1=O)C2=O (stereo unspecified) [Lenalidomide] + C[C@]1(O)C[C@@H](c2nc(-c3ccc4ccc(-c5ccccc5)nc4c3)c3c(N)nccn32)C1 [Linsitinib] (partner 1 µM): false
- Nc1cccc2c1CN(C1CCC(=O)NC1=O)C2=O (stereo unspecified) [Lenalidomide] + Cc1cc(Nc2cc(N3CCN(C)CC3)nc(Sc3ccc(NC(=O)C4CC4)cc3)n2)n[nH]1 [Tozasertib] (partner 0.1 µM): true

Prompt: Input Nc1cccc2c1CN(C1CCC(=O)NC1=O)C2=O (stereo unspecified) [Lenalidomide] + Cc1nc(Nc2ncc(C(=O)Nc3c(C)cccc3Cl)s2)cc(N2CCN(CCO)CC2)n1 [Dasatinib] (partner 0.075 µM) ; condition: relative viability strictly below 0.4. Does it hold?
Completion: true

====

system: NCI-H647; assay: relative viability (nuclei count vs DMSO), 5 days (fraction); higher = more cells survive; conditions: first compound 0.6325 µM
metric: relative viability

* CN1CCN(CCOc2cc(OC3CCOCC3)c3c(Nc4c(Cl)ccc5c4OCO5)ncnc3c2)CC1 [Saracatinib] + CC(C)C[C@H](NC(=O)[C@H](Cc1ccccc1)NC(=O)c1cnccn1)B(O)O [Bortezomib] (partner 0.002 µM) | 0.757
* CN1CCN(CCOc2cc(OC3CCOCC3)c3c(Nc4c(Cl)ccc5c4OCO5)ncnc3c2)CC1 [Saracatinib] + CC1(C)CCC(c2ccc(Cl)cc2)=C(CN2CCN(c3ccc(C(=O)NS(=O)(=O)c4ccc(N[C@H](CCN5CCOCC5)CSc5ccccc5)c(S(=O)(=O)C(F)(F)F)c4)cc3)CC2)C1 [Navitoclax] (partner 0.5 µM) | 1.18

Below: the item to evaluate.
Measured relative viability of CN1CCN(CCOc2cc(OC3CCOCC3)c3c(Nc4c(Cl)ccc5c4OCO5)ncnc3c2)CC1 [Saracatinib] + O=C(c1cc(Cc2n[nH]c(=O)c3ccccc23)ccc1F)N1CCN(C(=O)C2CC2)CC1 [Olaparib] (partner 8 µM) : 0.406

====

test system: RERF-LC-KJ; assay: relative viability (nuclei count vs DMSO), 5 days (fraction); higher = more cells survive; conditions: first compound 0.03162 µM
Reported relative viability values for the following compounds.
Note: the reply should be a number with no unit written.

Here is how some compounds turned out for relative viability.
- Cc1cn(-c2cc(NC(=O)c3ccc(C)c(Nc4nccc(-c5cccnc5)n4)c3)cc(C(F)(F)F)c2)cn1 [Nilotinib] + COc1cc2c(Oc3ccc(NC(=O)C4(C(=O)Nc5ccc(F)cc5)CC4)cc3F)ccnc2cc1OCCCN1CCOCC1 [Foretinib] (partner 0.25 µM): 0.81
- Cc1cn(-c2cc(NC(=O)c3ccc(C)c(Nc4nccc(-c5cccnc5)n4)c3)cc(C(F)(F)F)c2)cn1 [Nilotinib] + O=C(CCCCCCC(=O)Nc1ccccc1)NO [Vorinostat] (partner 1 µM): 0.568
- Cc1cn(-c2cc(NC(=O)c3ccc(C)c(Nc4nccc(-c5cccnc5)n4)c3)cc(C(F)(F)F)c2)cn1 [Nilotinib] + NC(=O)Nc1cc(-c2cccc(F)c2)sc1C(=O)N[C@H]1CCCNC1 [AZD7762] (partner 0.2 µM): 0.598

Measured relative viability of Cc1cn(-c2cc(NC(=O)c3ccc(C)c(Nc4nccc(-c5cccnc5)n4)c3)cc(C(F)(F)F)c2)cn1 [Nilotinib] + CCNC(=O)c1noc(-c2cc(C(C)C)c(O)cc2O)c1-c1ccc(CN2CCOCC2)cc1 [Luminespib] (partner 0.01 µM) : 0.946

Measured relative viability of Cc1cn(-c2cc(NC(=O)c3ccc(C)c(Nc4nccc(-c5cccnc5)n4)c3)cc(C(F)(F)F)c2)cn1 [Nilotinib] + Cc1nc(NC(=O)N2CCC[C@H]2C(N)=O)sc1-c1ccnc(C(C)(C)C(F)(F)F)c1 [Alpelisib] (partner 2 µM) : 0.727

Measured relative viability of Cc1cn(-c2cc(NC(=O)c3ccc(C)c(Nc4nccc(-c5cccnc5)n4)c3)cc(C(F)(F)F)c2)cn1 [Nilotinib] + CS(=O)(=O)N1CCN(Cc2cc3nc(-c4cccc5[nH]ncc45)nc(N4CCOCC4)c3s2)CC1 [Pictilisib] (partner 1 µM) : 0.591

Measured relative viability of Cc1cn(-c2cc(NC(=O)c3ccc(C)c(Nc4nccc(-c5cccnc5)n4)c3)cc(C(F)(F)F)c2)cn1 [Nilotinib] + Cc1nc(Nc2ncc(C(=O)Nc3c(C)cccc3Cl)s2)cc(N2CCN(CCO)CC2)n1 [Dasatinib] (partner 0.075 µM) : 0.71

Measured relative viability of Cc1cn(-c2cc(NC(=O)c3ccc(C)c(Nc4nccc(-c5cccnc5)n4)c3)cc(C(F)(F)F)c2)cn1 [Nilotinib] + COc1cccc2cc(-c3nc([C@H]4CC[C@H](C(=O)O)CC4)n4ncnc(N)c34)[nH]c12 [OSI-027] (partner 0.5 µM) : 0.438

====

Reported relative viability values for the following molecules.
tested on: NCI-H1755; assay: relative viability (nuclei count vs DMSO), 5 days (fraction); higher = more cells survive; details: first compound 0.002 µM
Note: the reply should be a number with no unit written.

Here is how some molecules turned out for relative viability.
• CCNC(=O)c1noc(-c2cc(C(C)C)c(O)cc2O)c1-c1ccc(CN2CCOCC2)cc1 [Luminespib] + Nc1ncn([C@H]2C[C@H](O)[C@@H](CO)O2)c(=O)n1 [Decitabine] (partner 2 µM) = 0.673
• CCNC(=O)c1noc(-c2cc(C(C)C)c(O)cc2O)c1-c1ccc(CN2CCOCC2)cc1 [Luminespib] + Cc1nc(Nc2ncc(C(=O)Nc3c(C)cccc3Cl)s2)cc(N2CCN(CCO)CC2)n1 [Dasatinib] (partner 0.075 µM) = 0.394
• CCNC(=O)c1noc(-c2cc(C(C)C)c(O)cc2O)c1-c1ccc(CN2CCOCC2)cc1 [Luminespib] + Cc1cc(Nc2cc(N3CCN(C)CC3)nc(Sc3ccc(NC(=O)C4CC4)cc3)n2)n[nH]1 [Tozasertib] (partner 0.1 µM) = 0.585

Measured relative viability of CCNC(=O)c1noc(-c2cc(C(C)C)c(O)cc2O)c1-c1ccc(CN2CCOCC2)cc1 [Luminespib] + C[C@]1(O)C[C@@H](c2nc(-c3ccc4ccc(-c5ccccc5)nc4c3)c3c(N)nccn32)C1 [Linsitinib] (partner 1 µM) : 0.974
